- system-under-test: Epidermal growth factor receptor (Homo sapiens, UniProt P00533)
- Sequence (P00533 whole entry): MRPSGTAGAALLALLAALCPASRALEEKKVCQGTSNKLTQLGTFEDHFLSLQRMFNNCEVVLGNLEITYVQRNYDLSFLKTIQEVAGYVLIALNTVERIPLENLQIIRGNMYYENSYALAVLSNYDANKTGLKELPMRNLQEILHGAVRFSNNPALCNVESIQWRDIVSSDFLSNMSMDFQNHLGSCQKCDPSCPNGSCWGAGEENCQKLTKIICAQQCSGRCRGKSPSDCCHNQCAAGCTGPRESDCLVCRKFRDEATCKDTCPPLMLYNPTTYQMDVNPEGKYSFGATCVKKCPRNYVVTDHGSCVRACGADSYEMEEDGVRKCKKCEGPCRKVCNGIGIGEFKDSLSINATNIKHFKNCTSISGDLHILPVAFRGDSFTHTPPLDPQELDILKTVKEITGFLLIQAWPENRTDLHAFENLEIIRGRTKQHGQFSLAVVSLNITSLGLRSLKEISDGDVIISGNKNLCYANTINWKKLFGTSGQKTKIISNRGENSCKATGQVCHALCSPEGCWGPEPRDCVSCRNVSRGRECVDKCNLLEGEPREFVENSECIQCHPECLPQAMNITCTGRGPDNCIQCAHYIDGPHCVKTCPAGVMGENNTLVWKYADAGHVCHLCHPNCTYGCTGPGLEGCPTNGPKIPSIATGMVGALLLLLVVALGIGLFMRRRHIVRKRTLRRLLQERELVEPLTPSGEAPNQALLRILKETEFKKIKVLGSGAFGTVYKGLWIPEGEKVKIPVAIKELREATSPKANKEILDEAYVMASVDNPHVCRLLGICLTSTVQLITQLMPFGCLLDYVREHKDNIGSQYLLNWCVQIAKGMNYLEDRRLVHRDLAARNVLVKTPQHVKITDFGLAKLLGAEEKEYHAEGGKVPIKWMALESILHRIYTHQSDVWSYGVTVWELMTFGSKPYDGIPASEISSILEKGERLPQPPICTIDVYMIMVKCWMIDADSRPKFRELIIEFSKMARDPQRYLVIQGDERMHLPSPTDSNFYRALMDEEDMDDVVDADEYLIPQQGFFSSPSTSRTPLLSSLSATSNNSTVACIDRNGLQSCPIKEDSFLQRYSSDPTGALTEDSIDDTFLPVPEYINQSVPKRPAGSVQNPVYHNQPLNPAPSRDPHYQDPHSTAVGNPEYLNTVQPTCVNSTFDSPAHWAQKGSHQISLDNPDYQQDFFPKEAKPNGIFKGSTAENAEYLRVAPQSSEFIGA
Please respond with reported pIC50 for every item in the list.
Interpret pIC50 as the negative base-10 log of the concentration measured in mol/L.

query: Given the entry `C=CC(=O)N1CCC[C@@H](n2ncc3c(N)ncnc32)C1` , report its measured pIC50.
result: 5.16

query: Given the compound `CCC(=O)N1CCC[C@@H](n2nc(-c3ccc(C(F)(F)F)cc3)c3c(N)ncnc32)C1` , what is its reported pIC50?
result: 5.19

query: So what does the record say about pIC50 for `C=CC(=O)N1CCC[C@@H](n2nc(Cc3ccccc3)c3c(N)ncnc32)C1` ?
result: 7.70

query: Field request: pIC50 | item: `C=CC(=O)N1CCC[C@@H](n2nc(-c3ccc(C(F)(F)F)cc3)c3c(N)ncnc32)C1`
result: 7.22
